# Assayed System: T1, B3GNT2 (Homo sapiens, UniProt Q9NY97)
# T1 construct: The respective ORFs of candidate genes [CD274 (NM_014143), MCL1 (NM_021960), JUNB (NM_002229), and B3GNT2 (NM_006577)] were synthesized; expressed in transfected cells; host or cells: A375 melanoma cells (lentiviral ORF overexpression)
# T1 sequence (Q9NY97 1-397): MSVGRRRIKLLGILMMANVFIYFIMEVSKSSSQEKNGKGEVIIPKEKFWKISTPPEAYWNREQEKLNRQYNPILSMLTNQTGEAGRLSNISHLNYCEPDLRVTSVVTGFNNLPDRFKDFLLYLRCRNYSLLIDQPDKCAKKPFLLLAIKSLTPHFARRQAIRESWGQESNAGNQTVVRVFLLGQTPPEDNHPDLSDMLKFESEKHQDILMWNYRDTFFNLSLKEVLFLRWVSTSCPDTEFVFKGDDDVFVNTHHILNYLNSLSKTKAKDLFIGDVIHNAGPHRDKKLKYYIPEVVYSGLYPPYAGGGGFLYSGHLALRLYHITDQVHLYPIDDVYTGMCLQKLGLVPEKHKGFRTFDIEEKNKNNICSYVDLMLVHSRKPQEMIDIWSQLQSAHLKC
# Protocol Details: Co-IP of FLAG-tagged B3GNT2 followed by mass spectrometry
# Type: cell-based
# Set-up: unit not given here
# Protocol Conditions: Co-IP with IgG control antibody, C-terminally FLAG-tagged B3GNT2; mass spectrometry count, unit not given
Reported Property: C-term IgG
Just the number, please.

{"Molecule": "SPRR2E (protein) MSYQQQQCKQPCQPPPVCPTPKCPEPCPPPKCPEPCPPPKCPQPCPPQQCQQKCPPVTPSPPCQPKCPPKSK", "Reported Property": "C-term IgG", "Obs Value": 5}
{"Molecule": "SLC25A6 (protein) MTEQAISFAKDFLAGGIAAAISKTAVAPIERVKLLLQVQHASKQIAADKQYKGIVDCIVRIPKEQGVLSFWRGNLANVIRYFPTQALNFAFKDKYKQIFLGGVDKHTQFWRYFAGNLASGGAAGATSLCFVYPLDFARTRLAADVGKSGTEREFRGLGDCLVKITKSDGIRGLYQGFSVSVQGIIIYRAAYFGVYDTAKGMLPDPKNTHIVVSWMIAQTVTAVAGVVSYPFDTVRRRMMMQSGRKGADIMYTGTVDCWRKIFRDEGGKAFFKGAWSNVLRGMGGAFVLVLYDELKKVI", "Reported Property": "C-term IgG", "Obs Value": 0}

Attention now shifts to the item below.
Query block: Look at this molecule and give its reported C-term IgG. SLC25A10 (protein) MAAEARVSRWYFGGLASCGAACCTHPLDLLKVHLQTQQEVKLRMTGMALRVVRTDGILALYSGLSASLCRQMTYSLTRFAIYETVRDRVAKGSQGPLPFHEKVLLGSVSGLAGGFVGTPADLVNVRMQNDVKLPQGQRRNYAHALDGLYRVAREEGLRRLFSGATMASSRGALVTVGQLSCYDQAKQLVLSTGYLSDNIFTHFVASFIAAAGDEPPPQGGCATFLCQPLDVLKTRLMNSKGEYQGVFHCAVETAKLGPLAFYKGLVPAGIRLIPHTVLTFVFLEQLRKNFGIKVPS
Result block: 0
